Attribution: ChEMBL document CHEMBL1909046

# Tgt: Sodium-dependent dopamine transporter (Homo sapiens)
# Sequence (Q01959 whole entry): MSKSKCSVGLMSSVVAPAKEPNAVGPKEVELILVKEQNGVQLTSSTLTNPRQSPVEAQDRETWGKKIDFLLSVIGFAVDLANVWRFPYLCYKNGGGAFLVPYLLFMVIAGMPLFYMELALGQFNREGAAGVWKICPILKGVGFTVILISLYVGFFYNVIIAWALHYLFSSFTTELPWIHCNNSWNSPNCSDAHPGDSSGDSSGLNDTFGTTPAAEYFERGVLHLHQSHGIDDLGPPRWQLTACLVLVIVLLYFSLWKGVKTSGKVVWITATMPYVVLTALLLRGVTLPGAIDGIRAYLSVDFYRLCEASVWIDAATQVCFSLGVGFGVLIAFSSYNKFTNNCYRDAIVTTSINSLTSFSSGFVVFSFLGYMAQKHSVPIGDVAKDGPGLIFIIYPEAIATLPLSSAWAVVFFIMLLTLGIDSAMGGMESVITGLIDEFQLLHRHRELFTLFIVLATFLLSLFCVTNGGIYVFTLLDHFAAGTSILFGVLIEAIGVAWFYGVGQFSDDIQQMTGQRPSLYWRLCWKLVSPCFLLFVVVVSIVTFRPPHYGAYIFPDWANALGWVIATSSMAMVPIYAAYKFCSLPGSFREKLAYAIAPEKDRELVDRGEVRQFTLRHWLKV
# Test method notes: DRUGMATRIX: Dopamine Transporter radioligand binding (ligand: [125I] RTI-55)
# Type: cell membranes, CHO-K1, Membrane
# Stated conditions: Not Active = under 50% inhibition at 10 µM; read-out: Ki
Provide the reported pKi of each item.
One number for each entry, as −log10 of the molar value.

# count of solved cases: 5
| Compound | Tgt | pKi |
| --- | --- | --- |
| Clc1ccccc1C(c1ccccc1)(c1ccccc1)n1ccnc1 | Sodium-dependent dopamine transporter (Homo sapiens) | 5.35 |
| CC(CCc1ccccc1)NCC(O)c1ccc(O)c(C(N)=O)c1 (stereo unspecified) | Sodium-dependent dopamine transporter (Homo sapiens) | 5.89 |
| Clc1ccc(C(c2ccccc2Cl)C(Cl)Cl)cc1 (stereo unspecified) | Sodium-dependent dopamine transporter (Homo sapiens) | 6.10 |
| CCCCCCCCCc1ccc(O)cc1 | Sodium-dependent dopamine transporter (Homo sapiens) | 5.88 |
| COc1ccc(CN(CCN(C)C)c2ccccn2)cc1 | Sodium-dependent dopamine transporter (Homo sapiens) | 6.16 |

Now for the compound whose pKi we want.
Q) # input compound: `CNCCC=C1c2ccccc2CCc2ccccc21` ; wanted: its pKi
A) 5.88
